molecular target: Cdk9/cyclinT1 (Homo sapiens (Human), UniProt P50750); test: Cdk9/CyclinT1 IMAP Protocol (fluorescence polarization kinase assay); conditions: Table 2; generated using one of the two Cdk9/cyclinT1 assays (IMAP or Alpha Screen), not specified which; unit inferred
Sequence (P50750 whole entry): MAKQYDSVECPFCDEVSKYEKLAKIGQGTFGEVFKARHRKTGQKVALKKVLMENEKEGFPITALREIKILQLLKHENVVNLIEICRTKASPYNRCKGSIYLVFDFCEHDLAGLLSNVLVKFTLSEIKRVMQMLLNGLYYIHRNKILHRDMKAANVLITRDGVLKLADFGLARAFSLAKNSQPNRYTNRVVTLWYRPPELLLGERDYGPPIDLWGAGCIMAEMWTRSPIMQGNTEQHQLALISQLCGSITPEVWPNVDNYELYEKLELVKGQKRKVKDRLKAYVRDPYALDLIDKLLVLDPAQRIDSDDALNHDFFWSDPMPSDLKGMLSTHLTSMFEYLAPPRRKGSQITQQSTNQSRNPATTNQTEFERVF
Sequence (O60563 whole entry partner): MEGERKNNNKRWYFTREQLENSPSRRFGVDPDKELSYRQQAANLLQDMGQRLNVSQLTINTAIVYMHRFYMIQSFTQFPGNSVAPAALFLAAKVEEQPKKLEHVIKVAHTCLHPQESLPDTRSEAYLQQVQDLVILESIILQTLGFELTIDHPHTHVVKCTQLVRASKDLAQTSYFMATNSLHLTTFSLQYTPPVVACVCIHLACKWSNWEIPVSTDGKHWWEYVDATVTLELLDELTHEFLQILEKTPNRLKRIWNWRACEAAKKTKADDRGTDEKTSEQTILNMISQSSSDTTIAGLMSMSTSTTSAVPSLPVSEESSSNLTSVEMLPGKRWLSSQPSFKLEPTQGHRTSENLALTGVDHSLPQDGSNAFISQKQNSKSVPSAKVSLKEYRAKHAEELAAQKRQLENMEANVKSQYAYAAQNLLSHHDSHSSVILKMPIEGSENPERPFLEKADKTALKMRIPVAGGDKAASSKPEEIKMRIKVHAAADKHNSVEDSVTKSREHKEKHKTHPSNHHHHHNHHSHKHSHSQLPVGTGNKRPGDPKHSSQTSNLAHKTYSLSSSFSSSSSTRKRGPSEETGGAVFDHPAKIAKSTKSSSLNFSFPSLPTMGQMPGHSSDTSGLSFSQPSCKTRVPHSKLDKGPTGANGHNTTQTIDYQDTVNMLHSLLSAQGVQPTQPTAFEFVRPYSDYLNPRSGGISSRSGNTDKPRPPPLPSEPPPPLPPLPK
pIC50: −log10 of the molar value.
Assign class by pIC50: not lower than 8 means TRUE; lower than 8 means FALSE.

>>> print(df.to_string())
                                   molecule                            assayed_target  class_assignment
0  O[C@H]1CC[C@H](Nc2cc(-c3cccc(N4CCOCC4)n3)c(Cl)cn2)CC1  Cdk9/cyclinT1 (Homo sapiens (Human), UniProt P50750)             FALSE
1  N[C@H]1CC[C@H](Nc2ncc(Cl)c(-c3cccc(NCc4cccc(F)c4)n3)n2)CC1  Cdk9/cyclinT1 (Homo sapiens (Human), UniProt P50750)             FALSE
2  CCCN(CCC)[C@H]1CC[C@H](Nc2cc(-c3ccc(F)c(NCC4(C#N)CCOCC4)n3)c(Cl)cn2)CC1  Cdk9/cyclinT1 (Homo sapiens (Human), UniProt P50750)              TRUE
3  N[C@H]1CC[C@H](Nc2cc(-c3cccc(NCC4(F)CCOCC4)n3)c(Cl)cn2)CC1  Cdk9/cyclinT1 (Homo sapiens (Human), UniProt P50750)              TRUE
4  COC[C@@H](C)N[C@H]1CC[C@H](Nc2cc(-c3cccc(NCC4(C#N)CCOCC4)n3)c(Cl)cn2)CC1 [Compound 310]  Cdk9/cyclinT1 (Homo sapiens (Human), UniProt P50750)              TRUE
5  COCCN[C@H]1CC[C@H](Nc2cc(-c3ccc(F)c(NCC4CCOCC4)n3)c(Cl)cn2)CC1  Cdk9/cyclinT1 (Homo sapiens (Human), UniProt P50750)              TRUE
